- system.tested: T1, human GIP receptor (human) (UniProt P48546)
- T1 sequence (looked up): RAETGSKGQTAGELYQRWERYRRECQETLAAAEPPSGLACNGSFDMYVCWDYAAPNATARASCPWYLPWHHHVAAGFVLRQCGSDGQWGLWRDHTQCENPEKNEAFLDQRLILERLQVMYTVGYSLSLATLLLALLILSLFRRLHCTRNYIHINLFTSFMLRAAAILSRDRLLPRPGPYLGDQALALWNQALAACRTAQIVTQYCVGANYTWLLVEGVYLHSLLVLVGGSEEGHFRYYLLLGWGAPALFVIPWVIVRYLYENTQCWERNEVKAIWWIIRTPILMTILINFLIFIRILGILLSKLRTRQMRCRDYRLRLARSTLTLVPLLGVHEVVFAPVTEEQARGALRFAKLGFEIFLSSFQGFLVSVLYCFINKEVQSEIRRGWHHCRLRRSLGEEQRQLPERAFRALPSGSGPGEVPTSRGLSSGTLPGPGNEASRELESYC
- assay.details: cell-based or functional assay
Starred links: 1 amine or outer side, 2 acyl side, 3 side chain; linkers in the order of their positions; H or OH if unused. Non-standard residues stand in square brackets, D forms with d. Groups on a side chain read outwards from the residue. No end group written: not given here. *: point of attachment. C20 diacid = O=C(O)CCCCCCCCCCCCCCCCCCC(=O)*; γGlu = O=C(O)[C@H](CCC(=O)[*:2])N[*:1]; αMeL = CC(C)C[C@](C)(N)C(=O)O; AEEA = NCCOCCOCC(=O)O; Aib = CC(C)(N)C(=O)O
property.measured: Relative cAMP EC50
Answer shape: numeric part, then the unit.

Give the measured Relative cAMP EC50 for YXQGTXTSDXXIXLDXKAQXEFIQXLIEGGPSSGAPPPSGS (synthetic construct; SITE 2: note = 2-Aminoisobutyric Acid; SITE 6: note = alpha-methyl-2-fluoro-L-phenylalanine; SITE 10: note = 3-(4-Pyridyl)-L-alanine; SITE 11: note = alpha-methyl-L-serine; SITE 13: note = alpha-methyl-leucine; SITE 16: note = L-ornithine; SITE 17: note = Lysine is chemically mo) [Example 1202]
0.00635 nM

Give the measured Relative cAMP EC50 for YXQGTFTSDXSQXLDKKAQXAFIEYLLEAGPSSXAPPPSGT (synthetic construct; SITE 2: note = 2-Aminoisobutyric Acid; SITE 10: note = 3-(4-Pyridyl)-L-alanine; SITE 13: note = alpha-methyl-leucine; SITE 17: note = Lysine is chemically modified through conjugation of the epsilon-amino group of the Lysine side chain with (2-[2-(2-Amino-ethoxy)-ethoxy]-acetyl)) [Example 825]
0.12 nM

Give the measured Relative cAMP EC50 for Y[Aib]QGTFTSDYSK[αMeL]LDKK([AEEA-γGlu-C20 diacid])AQQAFIEYLIAGGPSSGAPPPSSE-NH2 [Example 322]
0.264 nM
